Target: E3 ubiquitin-protein ligase XIAP (Homo sapiens) (UniProt P98170)
Sequence (P98170 whole entry, looked up): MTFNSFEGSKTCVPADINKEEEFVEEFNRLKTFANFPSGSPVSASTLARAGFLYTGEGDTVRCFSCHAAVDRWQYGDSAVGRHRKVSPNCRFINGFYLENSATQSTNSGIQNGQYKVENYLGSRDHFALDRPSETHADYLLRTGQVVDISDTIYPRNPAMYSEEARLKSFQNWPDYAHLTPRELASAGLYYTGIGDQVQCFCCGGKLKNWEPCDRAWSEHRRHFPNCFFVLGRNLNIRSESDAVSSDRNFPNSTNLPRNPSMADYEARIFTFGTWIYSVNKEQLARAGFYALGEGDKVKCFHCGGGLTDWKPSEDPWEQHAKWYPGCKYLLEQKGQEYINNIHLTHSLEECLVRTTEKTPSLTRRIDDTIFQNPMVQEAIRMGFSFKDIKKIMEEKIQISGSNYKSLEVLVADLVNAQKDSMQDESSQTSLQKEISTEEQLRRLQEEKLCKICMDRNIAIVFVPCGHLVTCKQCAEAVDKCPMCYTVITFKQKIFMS
Assay: small molecules binding XIAP protein – biophysical, small-molecule microarray, fluorescence 635 nm, primary screen (AID 1181);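 also: score merges 667 nm emission and signal to noise over triplicate slides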
Details: higher = more signal
Would you kindly list composite z-score for each of these compounds?
Reply briefly: the number, and no unit.

Task: Given the entry O=C1N(CCS(=O)(=O)c2ccccc2)Cc2ccccc2C[C@@]12COC(c1ccc(OCCCO)cc1)=N2 , what composite z-score was observed with E3 ubiquitin-protein ligase XIAP (Homo sapiens) (UniProt P98170)?
Output: 0.167

Task: How about COc1ccc([Si](C)(C)[C@@H]2[C@@H](CC(=O)N(CCO)Cc3ccccc3)O[C@]3(C(=O)N(C)c4c(Br)cc(C)cc43)[C@H]2C)cc1 ?
Output: -0.174

Task: How about C=C(COC)/C(=C/C[C@@H](OC(=O)c1ccncc1)c1cccc(OCCO)c1)c1cc(C(=O)OC)ccc1OC ?
Output: 0.201

Task: How about O=C1c2ccccc2[C@](Cc2ccccc2I)(C(=O)NCC(F)(F)F)[C@H](c2ccc(CO)cc2)N1Cc1ccccc1 ?
Output: -0.0962

====

Assay: resazurin metabolic signal in A549 cells – cell-based, resazurin fluorescence, 24 h, PK04 Diversity Set, profiling panel (AID 1171); also: test concentration not given here
Conditions: A549 viability, higher = more signal, called active from +8 up or from −8 down
EXPERIMENTAL ENDPOINT: z-score
Reply briefly: the number, and no unit.

Task: I am curious: what z-score value has been reported for COCCOC(=O)N1C(=O)[C@@]2(c3cc(C#CCCO)ccc31)[C@H](c1ccc(OCCO)cc1)N1[C@H](c3ccccc3)[C@H](c3ccccc3)OC(=O)[C@H]1[C@@H]2C(=O)N1CCc2cc(OC)c(OC)cc2C1 ?
Output: -0.533

Task: How about COCCOC(=O)N1C(=O)[C@@]2(c3cc(C#CCC(C(=O)OC)C(=O)OC)ccc31)[C@H](C(=O)N1CCCCCCC1)[C@H]1C(=O)O[C@H](c3ccccc3)[C@H](c3ccccc3)N1[C@@H]2c1ccc(O)cc1 ?
Output: 0.616

Task: How about C[N+](C)(C)CCCCCCNC(=O)[C@H]1C[C@H]2C(=O)N3CCC[C@H]3C(=O)N2[C@H]1c1cccc(OCCO)c1 ?
Output: 0.558

Task: How about CC(C)NC(=O)[C@@]1(Cc2ccccc2I)c2ccccc2C(=O)N(Cc2ccccc2C(F)(F)F)[C@H]1c1ccc(CO)cc1 ?
Output: 0.444

Task: How about CCOC(=O)C1=CC[C@@H](c2cccc(Br)c2)N(S(=O)(=O)c2ccc(C)cc2)[C@H]1c1ccc([N+](=O)[O-])cc1 ?
Output: 0.851

Task: How about COCCCNC(=O)[C@@H]1c2ccccc2C(=O)N(c2ccc(C)cn2)[C@H]1c1ccc(CO)cc1 ?
Output: -0.708

Task: How about CC(C)(C)OC(=O)CC[C@]1(C(=O)N2CCCCC2)N=C(c2ccc(OCCCO)cc2)O[C@H]1c1ccccc1CN=[N+]=[N-] ?
Output: -1.35

====

Biological target: Torsin-1A-interacting protein 1 (Homo sapiens) (UniProt Q5JTV8)
Sequence (Q5JTV8 whole entry, looked up): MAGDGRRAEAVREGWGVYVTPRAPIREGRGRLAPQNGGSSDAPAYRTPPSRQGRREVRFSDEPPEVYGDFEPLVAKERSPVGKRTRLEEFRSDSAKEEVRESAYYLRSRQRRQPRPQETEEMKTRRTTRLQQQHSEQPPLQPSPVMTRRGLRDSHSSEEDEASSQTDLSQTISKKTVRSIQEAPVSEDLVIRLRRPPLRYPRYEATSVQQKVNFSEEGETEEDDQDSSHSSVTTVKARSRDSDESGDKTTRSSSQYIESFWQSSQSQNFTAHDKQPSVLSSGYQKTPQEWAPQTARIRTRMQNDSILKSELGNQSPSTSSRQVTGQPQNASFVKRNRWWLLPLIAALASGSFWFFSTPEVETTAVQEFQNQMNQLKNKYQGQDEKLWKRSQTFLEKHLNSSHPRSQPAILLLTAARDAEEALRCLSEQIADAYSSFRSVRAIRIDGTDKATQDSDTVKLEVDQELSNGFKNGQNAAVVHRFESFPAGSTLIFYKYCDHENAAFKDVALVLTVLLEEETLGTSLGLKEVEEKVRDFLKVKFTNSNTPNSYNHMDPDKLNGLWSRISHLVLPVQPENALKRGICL
Assay: compound microarray binding of lysate hLAP1 – cell lysate, small-molecule microarray, COS7 lysate, 635/667 nm fluorescence, primary screen (AID 1116)
Details: 635 nm fluorescence, higher = more signal
EXPERIMENTAL ENDPOINT: composite z-score
Reply briefly: the number, and no unit.

Task: I am curious: what composite z-score value has been reported for CC(=O)NCCCC[C@@H]1NC(=O)[C@H]2C[C@@H](C(=O)NCCCCCN)[C@@H](c3cccc(OCCO)c3)N2C1=O ?
Output: 0.718

Task: How about COCCCNC(=O)[C@@]1(Cc2ccccc2I)c2ccccc2C(=O)N(Cc2ccccc2Cl)[C@H]1c1ccc(CO)cc1 ?
Output: 0.164

Task: How about COC(=O)[C@@]1(Cc2ccccc2)[C@H]2c3cc(C(=O)N4CCCC4)n(Cc4ccc(OC(F)(F)F)cc4)c3C[C@H]2CN1C(=O)c1ccccc1 ?
Output: 0.867

Task: How about O=C1C[C@@](C(=O)O)(c2ccc([N+](=O)[O-])cc2)[C@@H](c2ccc(CO)cc2)N1CC12CC3CC(CC(C3)C1)C2 ?
Output: 1.41

Task: How about O=C1O[C@H](c2ccccc2)[C@H](c2ccccc2)N2[C@H]1[C@@H](C(=O)N1CCN(c3ncccn3)CC1)[C@]1(C(=O)Nc3ccc(C#CCCO)cc31)[C@H]2c1ccc(OCCO)cc1 ?
Output: 1.53

Task: How about COCCCNC(=O)[C@@]1(Cc2ccccc2)COC(c2ccc(OCCCO)cc2)=N1 ?
Output: 1.03

Task: How about CC(C)C(CO)N1C(=O)[C@@H]2[C@H]3C(=O)OCC=C[C@H]3OC23C=CCN(CCN2CCOCC2)C(=O)[C@@H]13 (some centres not stated) ?
Output: -0.128

Task: How about COc1cccc(C[C@H]2C[C@@H](CO[Si](C(C)C)(C(C)C)C(C)C)N3C(=O)[C@]4(C(C)=O)O[C@]23[C@H]2C(=O)N(C)C(=O)[C@H]24)c1 ?
Output: 0.102

Task: How about COC(=O)[C@@]1(Cc2ccc(OC)cc2)[C@H]2c3cc(C(=O)N4CCCC4)n(CCc4ccc(O)c(OC)c4)c3C[C@H]2CN1C(=O)c1ccccc1 ?
Output: 0.39

Task: How about NC(=O)[C@H]1[C@@H]2C(=O)O[C@@H](c3ccccc3)[C@@H](c3ccccc3)N2[C@@H](c2ccc(O)cc2)[C@]12C(=O)Nc1ccc(C#CC3(O)CCCCCC3)cc12 ?
Output: 1.49

Task: How about COC(=O)C(CC#Cc1ccc2c(c1)[C@]1(C(=O)N2)[C@H](c2ccccc2OCCO)N2[C@H](c3ccccc3)[C@H](c3ccccc3)OC(=O)[C@H]2[C@@H]1C(=O)Nc1nc2ccccc2s1)C(=O)OC ?
Output: 0.874

Task: How about C/C=C/[C@@H](CCn1cc([C@H](O)c2ccccc2)nn1)[Si](C)(C)c1ccc(OC)cc1 ?
Output: 0.834

Task: How about CCOC(=O)C[C@H]1[C@H](OC(=O)Cc2ccc3c(c2)OCO3)[C@@H](NC(=O)c2ccccc2)c2cc(OCCCO)ccc2N1C(=O)c1ccccc1 ?
Output: 0.223

Task: How about COCCOC(=O)N1C(=O)[C@@]2(c3cc(C#Cc4ccc(OC)cc4)ccc31)[C@H](c1ccc(OCCO)cc1)N1[C@H](c3ccccc3)[C@H](c3ccccc3)OC(=O)[C@H]1[C@@H]2C(N)=O ?
Output: 1.36

Task: How about NC(=O)NCC#Cc1ccc2c(c1)[C@]1(C(=O)N2)[C@H](c2ccc(OCCO)cc2)N2[C@H](c3ccccc3)[C@H](c3ccccc3)OC(=O)[C@H]2[C@@H]1C(=O)N1CCN(c2ncccn2)CC1 ?
Output: 0.655

Task: How about COC(=O)[C@@]1(Cc2ccccc2)[C@H]2c3cc(C(=O)N(C)C)n(Cc4ccccn4)c3C[C@H]2CN1C(=O)c1ccccc1 ?
Output: 1.77

Task: How about COc1ccc([Si](C)(C)[C@H]2[C@H](CCn3cc(CCO)nn3)O[C@@]3(C(=O)N(Cc4cccc(N5C(=O)c6cccc7cccc5c67)c4)c4ccccc43)[C@@H]2C)cc1 ?
Output: 1.46

Task: How about COCCCNC(=O)[C@]1(Cc2ccccc2CN=[N+]=[N-])N=C(c2ccc(OCCCO)cc2)O[C@@H]1c1ccccc1CN=[N+]=[N-] ?
Output: 2.09

Task: How about CN(C)C(=O)[C@@]1(CCC(=O)OC(C)(C)C)COC(c2ccc(OCCCO)cc2)=N1 ?
Output: 1.54

Task: How about COC(=O)[C@H]1N=C(c2ccc(OCCCO)cc2)O[C@H]1c1ccccc1CN=[N+]=[N-] ?
Output: 0.431

Task: How about O=C(O)[C@@]1(Cc2ccccc2)COC(c2ccc(OCCCO)cc2)=N1 ?
Output: 0.28

Task: How about NC(=O)[C@@H]1[C@H]2C(=O)O[C@H](c3ccccc3)[C@H](c3ccccc3)N2[C@H](c2ccccc2OCCO)[C@@]12C(=O)Nc1ccc(C#CCCO)cc12 ?
Output: 0.0571

Task: How about O=C1N(CCS(=O)(=O)c2ccccc2)Cc2ccccc2C[C@@]12COC(c1ccc(OCCCO)cc1)=N2 ?
Output: 1.56

Task: How about CC(C)CCC[C@@H](C)[C@H]1CC[C@@]2(C)C3=C(CC[C@]12C)[C@@]1(C)CC[C@H](OC(=O)c2ccc(N)cc2)C(C)(C)C1CC3 (some centres not stated) ?
Output: 0.282

Task: How about Cc1ccc(N2C(=O)c3ccccc3[C@](C)(C(=O)NC(C)C)[C@@H]2c2ccc(CO)cc2)nc1 ?
Output: 0.177

Task: How about NCCCCCCNC(=O)[C@H]1C[C@H]2C(=O)N3CCC[C@H]3C(=O)N2[C@H]1c1ccc(O)cc1 ?
Output: 0.999

Task: How about C=CCC(OC(C)=O)[C@@H]1[C@@H](N(Cc2cccc3ccccc23)C(=O)Cc2ccc(F)cc2)c2cc(OCCCO)ccc2N1C(=O)Cc1ccc(OC)cc1 (some centres not stated) ?
Output: -0.0854
